Listing: inhibition at 10 µM of selected compounds
- Tested on: NCI 60 cancer cell lines
- measurement_description: NCI-60 single-dose antiproliferative assay, mean over panel
- Format: cell-based
- reported_conditions: Homo sapiens; 10 μM single dose; mean over all NCI panel cell lines; read-out: MEAN % Growth inhibition
# number only, unit % dropped from output

Would you please look over these solved cases?
compound	experimental_system	property	measurement_units	measured_result
NS(=O)(=O)c1ccc(NCc2ccc(NC=C3C(=O)Nc4ccccc43)cc2)cc1 [Compound 11a]	NCI 60 cancer cell lines	inhibition at 10 µM	%	2.58
O=C1Nc2ccccc2C1=CNc1ccc(C(=O)Nc2ccc(S(=O)(=O)Nc3ncccn3)cc2)cc1	NCI 60 cancer cell lines	inhibition at 10 µM	%	2.55
O=C1Nc2ccccc2C1=CNc1ccc(C(=O)C=CNc2nccs2)cc1 [Compound 13c]	NCI 60 cancer cell lines	inhibition at 10 µM	%	3.28
O=C(Nc1ccc(NC=C2C(=O)Nc3ccccc32)cc1)Nc1nccs1 [Compound 15c]	NCI 60 cancer cell lines	inhibition at 10 µM	%	61.8
O=C1Nc2ccccc2C1=CNc1ccc(CNc2ccc(S(=O)(=O)Nc3ncccn3)cc2)cc1 [Compound 11b]	NCI 60 cancer cell lines	inhibition at 10 µM	%	7.38

Next compound, inhibition at 10 µM to be filled in.
Inquiry: Give inhibition at 10 µM for the following compound: "O=C1Nc2ccccc2C1=CNc1ccc(C(=O)O)cc1"
Reply text: 3.71
